Cited source: patent US20220332795A1

biological target: T1, recombinant biotinylated CD71 extracellular domain (Sino Biologics) with an N-terminal 6His tag (human, UniProt P02786 89-760, biotinylated (site not stated)); assay: primary solution ELISA screen, signal on hCD71 over HSA
T1 construct: extracellular domain; also called hCD71; huCD71 ECD
T1 sequence (P02786 other isoform, or with tags, fused parts or gaps): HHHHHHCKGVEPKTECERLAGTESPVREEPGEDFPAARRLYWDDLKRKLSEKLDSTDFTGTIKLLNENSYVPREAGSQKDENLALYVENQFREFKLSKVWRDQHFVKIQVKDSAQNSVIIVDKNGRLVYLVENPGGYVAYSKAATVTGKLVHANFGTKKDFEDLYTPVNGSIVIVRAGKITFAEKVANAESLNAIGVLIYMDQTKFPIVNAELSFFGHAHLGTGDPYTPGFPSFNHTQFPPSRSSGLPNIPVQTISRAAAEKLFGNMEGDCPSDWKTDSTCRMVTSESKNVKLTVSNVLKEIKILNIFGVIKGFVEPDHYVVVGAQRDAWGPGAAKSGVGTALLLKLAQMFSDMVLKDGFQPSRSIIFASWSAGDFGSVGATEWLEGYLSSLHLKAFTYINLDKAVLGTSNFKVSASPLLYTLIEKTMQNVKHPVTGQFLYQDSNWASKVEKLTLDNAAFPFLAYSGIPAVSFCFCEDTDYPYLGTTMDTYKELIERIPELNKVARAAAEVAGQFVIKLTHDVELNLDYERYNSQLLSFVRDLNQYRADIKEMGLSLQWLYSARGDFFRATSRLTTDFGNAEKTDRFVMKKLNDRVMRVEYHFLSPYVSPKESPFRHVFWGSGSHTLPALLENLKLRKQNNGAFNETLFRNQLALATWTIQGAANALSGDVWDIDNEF
# key: entry, value: hCD71:HSA
Lab note: record the figure alone, no unit after it.

Binder | Recorded measurement
SEQ ID NO 15 (designed binder, not shown: small tags and cut ends, FN3 domain, hit of the apical domain panning) MLPAPKNLVVSRVTEDSARLSWQGVARAFDSFLITYREQIFAGEVIVLTVPGSERSYDLTGLKPGTECPVWIQGVKGGSPSAPLSAEFTT | 35
SEQ ID NO 5 (designed binder, not shown: small tags and cut ends, FN3 domain, hit of the apical domain panning) MLPAPKNLVVSEVTEDSARLSWQGVARAFDSFLITYREQIFAGEVIVLTVPGSERSYDLTGLKPGTEYWVYIWGVKGGKPSFPLRAGFTT | 39
SEQ ID NO 87 (designed binder, not shown: small tags and cut ends, FN3 domain, hit of the apical domain panning) MLPAPKNLVVSRVTEDSARLSWTAPDAAFDSFAIEYTEFLYSGEAIVLTVPGSERSYDLTGLKPGTEYGVPINGVKGGFVSPPLSAIVTT | 77

Now look at this entry.
What measured hCD71:HSA goes with SEQ ID NO 2 (designed binder, not shown: small tags and cut ends, FN3 domain, hit of the apical domain panning) MLPAPKNLVVSEVTEDSARLSWQGVARAFDSFMINYSELFWMGEAIVLTVPGSERSYDLTGLKPGTEYVVRIKGVKGGKGSWPLHAHFTT ?
14
